Recorded IC50, one value per entry.
target: cdk4/cyclin D1 (Homo sapiens, UniProt P11802); assay: Cyclin-dependent kinase assay, cdk4/cyclin D1; type: biochemical; settings: cyclin D1/cdk4; GST-pRb substrate, 10 µM ATP
Sequence (P11802 whole entry): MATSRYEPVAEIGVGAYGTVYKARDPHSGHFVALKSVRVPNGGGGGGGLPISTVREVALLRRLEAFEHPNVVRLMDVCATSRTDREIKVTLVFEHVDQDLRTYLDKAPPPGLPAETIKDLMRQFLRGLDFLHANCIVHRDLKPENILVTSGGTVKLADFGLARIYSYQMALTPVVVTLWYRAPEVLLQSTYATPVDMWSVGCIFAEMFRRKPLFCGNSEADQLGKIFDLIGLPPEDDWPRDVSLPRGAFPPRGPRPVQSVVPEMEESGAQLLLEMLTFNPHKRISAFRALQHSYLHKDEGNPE
Sequence (P24385 whole entry partner): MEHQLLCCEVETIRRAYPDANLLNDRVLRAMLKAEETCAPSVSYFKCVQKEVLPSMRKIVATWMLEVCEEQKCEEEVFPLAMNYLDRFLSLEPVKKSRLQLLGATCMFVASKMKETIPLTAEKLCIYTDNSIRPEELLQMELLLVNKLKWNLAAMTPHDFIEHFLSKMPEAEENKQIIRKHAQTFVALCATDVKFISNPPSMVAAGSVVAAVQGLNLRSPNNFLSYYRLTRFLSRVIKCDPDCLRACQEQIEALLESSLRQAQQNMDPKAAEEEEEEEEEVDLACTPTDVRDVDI
Where a name gives a salt, the structure may show the parent alone.
Give just the numeric value; nM need not be written.

Some solved entries appear below for comparison.
> print(dat)
                                   molecule  measured.metric  observed
1  COC(=O)c1ccccc1S(=O)(=O)N1CCC(Nc2nc(N[C@H]3CC[C@H](N)CC3)nc3c2ncn3C2CCCC2)CC1.Cl.Cl [compound 111, dihydrochloride]             IC50        51
2  CCCCCCCOc1ccc(C(=O)N2CCC(Nc3nc(N[C@H]4CC[C@H](N)CC4)nc4c3ncn4C3CCCC3)CC2)cc1 [compound 19]             IC50       883
3  N[C@H]1CC[C@H](Nc2nc(NC3CCN(C(=O)NC(=O)c4ccccc4)CC3)c3ncn(C4CCCC4)c3n2)CC1 [compound 172, dihydrochloride]             IC50       829
4  Cl.Cl.N[C@H]1CC[C@H](Nc2nc(NC3CCN(S(=O)(=O)c4cccc(C(F)(F)F)c4)CC3)c3ncn(C4CCCC4)c3n2)CC1 [compound 112, dihydrochloride]             IC50       224
5  Cl.Cl.N[C@H]1CC[C@H](Nc2nc(NC3CCN(C(=O)Oc4ccc(Br)cc4)CC3)c3ncn(C4CCCC4)c3n2)CC1 [compound 81, dihydrochloride]             IC50        67
6  N[C@H]1CC[C@H](Nc2nc(NC3CCN(S(=O)(=O)c4cccc5cccnc45)CC3)c3ncn(C4CCCC4)c3n2)CC1 [compound 144, dihydrochloride]             IC50        75

// sample N[C@H]1CC[C@H](Nc2nc(NC3CCN(S(=O)(=O)CC(F)(F)F)CC3)c3ncn(C4CCCC4)c3n2)CC1 [compound 133, dihydrochloride] , its IC50 was 85

* * *

molecular target: cdk2/cyclin E (Homo sapiens); experiment: Cyclin-dependent kinase assay, cdk2/cyclin E; details: CDK2 IC50, nM, GST-pRb substrate, 10 µM ATP
Where a name gives a salt, the structure may show the parent alone.
MEASURED METRIC: IC50 (nM)
Report the figure in nM without appending any unit label.

Form: molecule = N[C@H]1CC[C@H](Nc2nc(NC3CCN(C(=O)Nc4ccc(Cl)cc4)CC3)c3ncn(C4CCCC4)c3n2)CC1 [compound 150, dihydrochloride] ; IC50 = 55

What the record says about N[C@H]1CC[C@H](Nc2nc(NC3CCN(C(=O)c4cccc(C(F)(F)F)c4)CC3)c3ncn(C4CCCC4)c3n2)CC1 [compound 3, dihydrochloride] : IC50 is 48

Form: molecule = N[C@H]1CC[C@H](Nc2nc(NC3CCN(S(=O)(=O)c4ccccc4)CC3)c3ncn(C4CCCC4)c3n2)CC1 [compound 105, dihydrochloride] ; IC50 = 8

* * *

biological target: cdk2/cyclin E (Homo sapiens); assay: Cyclin-dependent kinase assay, cdk2/cyclin E; conditions: CDK2 IC50, nM, GST-pRb substrate, 10 µM ATP
Structures can show the parent of a compound that is named as a salt.
Recorded IC50 for the following molecules
The reply should read as a number followed by its unit.

Would you please look over these solved cases?
MOLECULE	IC50
N[C@H]1CC[C@H](Nc2nc(NC3CCN(C(=O)Cc4ccc(F)cc4)CC3)c3ncn(C4CCCC4)c3n2)CC1 [compound 48, dihydrochloride]	61 nM
N[C@H]1CC[C@H](Nc2nc(NC3CCN(C(=O)Nc4ccc(OC(F)(F)F)cc4)CC3)c3ncn(C4CCCC4)c3n2)CC1 [compound 175, dihydrochloride]	114 nM
N[C@H]1CC[C@H](Nc2nc(NC3CCN(C(=O)NC4CC4c4ccccc4)CC3)c3ncn(C4CCCC4)c3n2)CC1 (mixture of isomers) [compound 156, dihydrochloride]	79 nM
N[C@H]1CC[C@H](Nc2nc(NC3CCN(C(=O)c4ccc(Cl)c(Cl)c4)CC3)c3ncn(C4CCCC4)c3n2)CC1 [compound 15]	291 nM

Here is another molecule to look at.
Noted for N[C@H]1CC[C@H](Nc2nc(NC3CCN(C(=O)Nc4ccccc4-c4ccccc4)CC3)c3ncn(C4CCCC4)c3n2)CC1 [compound 187, dihydrochloride] : its IC50 reads 61 nM
